This document collects IC50 values reported for human neurokinin-1 receptor (NK1R) (Homo sapiens).
Recorded metric: IC50 (nM)

Consider the worked cases shown below.
Chemical structure: O=C1COC(N2C[C@H]3CC[C@H](O[C@H](CO)c4cc(C(F)(F)F)cc(C(F)(F)F)c4)[C@@H](c4ccc(F)cc4)[C@@H]3C2)=N1
Unit symbol: nM
IC50: 0.03
//
Chemical structure: Cc1cc(F)ccc1[C@H]1[C@@H]2CN(C3=NC(=O)CO3)C[C@H]2CC[C@@H]1O[C@H](CO)c1cc(C(F)(F)F)cc(C(F)(F)F)c1
Unit symbol: nM
IC50: 0.03
//
Chemical structure: Cc1ccccc1[C@H]1[C@@H]2CNC[C@H]2CC[C@@H]1O[C@H](CO)c1cc(C(F)(F)F)cc(C(F)(F)F)c1
Unit symbol: nM
IC50: 0.04
//
Chemical structure: O=C1C=C(N2C[C@H]3CC[C@H](O[C@@H](CO)c4cc(C(F)(F)F)cc(C(F)(F)F)c4)[C@@H](c4ccc(F)cc4)[C@@H]3C2)CC1
Unit symbol: nM
IC50: 55
//
Chemical structure: Cc1ccccc1[C@H]1[C@@H]2CN(C(=O)C(C)(C)C)C[C@H]2CC[C@@H]1O[C@H](CO)c1cc(C(F)(F)F)cc(C(F)(F)F)c1
Unit symbol: nM
IC50: 0.07

1 = Cc1ccccc1[C@H]1[C@@H]2CN(C(=O)C(C)(C)C)C[C@H]2CC[C@@H]1O[C@@H](CO)c1cc(C(F)(F)F)cc(C(F)(F)F)c1
2 = Cc1ccccc1[C@H]1[C@@H]2CNC[C@H]2CC[C@@H]1O[C@@H](CO)c1cc(C(F)(F)F)cc(C(F)(F)F)c1
3 = Cc1ccccc1[C@H]1[C@@H]2CN(C3=CC(=O)CC3)C[C@H]2CC[C@@H]1O[C@H](CO)c1cc(C(F)(F)F)cc(C(F)(F)F)c1
4 = OC[C@@H](O[C@H]1CC[C@@H]2CNC[C@H]2[C@@H]1c1ccc(F)cc1)c1cc(C(F)(F)F)cc(C(F)(F)F)c1
Task: Your job: order these 4 records by IC50, ascending. # the answer lists labels in the order requested
Result: 3, 4, 2, 1
(3: 0.06 nM, 4: 0.35 nM, 2: 2.2 nM, 1: 45 nM)
